Target: UniProt:P11309
Sequence (P11309 whole entry): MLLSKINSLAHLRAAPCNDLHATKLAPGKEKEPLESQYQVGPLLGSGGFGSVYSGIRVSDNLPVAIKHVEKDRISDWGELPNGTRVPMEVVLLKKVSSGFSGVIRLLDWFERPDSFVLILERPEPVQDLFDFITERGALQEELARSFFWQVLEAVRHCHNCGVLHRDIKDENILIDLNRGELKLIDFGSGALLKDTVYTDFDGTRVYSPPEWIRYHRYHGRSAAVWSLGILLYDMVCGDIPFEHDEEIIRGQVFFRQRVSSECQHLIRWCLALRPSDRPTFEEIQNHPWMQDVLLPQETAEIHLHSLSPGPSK

TEST_SMILES | IC50
Cc1cc(Nc2ncc3c(n2)N(C)C(=O)N(c2cc(NC(=O)c4cccc(C(F)(F)F)c4)ccc2C)C3)n(C)n1 | ≥ 10 µM

###

Molecular target: RSK3 (Homo sapiens)
Sequence (Q15349 whole entry): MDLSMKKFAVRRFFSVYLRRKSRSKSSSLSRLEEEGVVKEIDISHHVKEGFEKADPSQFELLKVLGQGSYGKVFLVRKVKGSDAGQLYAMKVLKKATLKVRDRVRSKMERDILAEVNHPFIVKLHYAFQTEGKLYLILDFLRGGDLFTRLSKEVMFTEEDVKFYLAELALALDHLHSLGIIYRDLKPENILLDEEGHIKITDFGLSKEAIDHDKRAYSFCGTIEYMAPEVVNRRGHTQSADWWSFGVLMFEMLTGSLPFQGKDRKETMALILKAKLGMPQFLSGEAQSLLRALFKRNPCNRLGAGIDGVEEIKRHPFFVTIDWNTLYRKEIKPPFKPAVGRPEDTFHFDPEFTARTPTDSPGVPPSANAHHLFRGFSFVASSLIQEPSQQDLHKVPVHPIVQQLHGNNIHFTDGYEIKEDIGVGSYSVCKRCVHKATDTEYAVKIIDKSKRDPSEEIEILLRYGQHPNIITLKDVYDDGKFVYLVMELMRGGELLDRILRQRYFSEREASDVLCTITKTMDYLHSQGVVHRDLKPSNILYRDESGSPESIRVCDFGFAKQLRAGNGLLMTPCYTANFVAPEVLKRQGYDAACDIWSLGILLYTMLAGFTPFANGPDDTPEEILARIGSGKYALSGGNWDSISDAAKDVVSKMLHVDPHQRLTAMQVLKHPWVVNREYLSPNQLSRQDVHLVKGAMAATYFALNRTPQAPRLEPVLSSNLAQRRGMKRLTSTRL
pIC50: −log10 of the molar value.

MOLECULE | pIC50
Cc1cc(Nc2ncc3c(n2)N(C)C(=O)N(c2cc(NC(=O)c4cccc(C(F)(F)F)c4)ccc2C)C3)n(C)n1 [SC-1] | 5.48

###

Target: p70S6K (Homo sapiens)
Construct: purchased Reaction Biology Corporation (Malvern, PA), contract assay
Sequence (P23443 whole entry): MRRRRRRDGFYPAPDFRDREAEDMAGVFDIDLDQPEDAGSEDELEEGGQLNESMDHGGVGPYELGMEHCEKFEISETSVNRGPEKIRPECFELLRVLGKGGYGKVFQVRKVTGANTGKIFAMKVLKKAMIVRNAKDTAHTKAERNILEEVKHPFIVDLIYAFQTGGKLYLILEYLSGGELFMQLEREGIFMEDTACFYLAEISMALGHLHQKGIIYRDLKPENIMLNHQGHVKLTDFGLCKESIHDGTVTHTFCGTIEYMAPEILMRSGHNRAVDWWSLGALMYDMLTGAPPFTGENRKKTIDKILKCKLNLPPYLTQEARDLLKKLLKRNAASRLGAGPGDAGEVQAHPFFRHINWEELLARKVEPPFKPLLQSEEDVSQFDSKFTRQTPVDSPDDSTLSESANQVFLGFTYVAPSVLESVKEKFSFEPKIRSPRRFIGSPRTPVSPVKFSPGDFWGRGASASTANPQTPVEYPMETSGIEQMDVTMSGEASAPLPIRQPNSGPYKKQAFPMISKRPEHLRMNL
Test: Miniaturized 33P-based kinase screening assay
Assay type: biochemical
Conditions: max 10 µM, 3-fold serial dilution, n = 2
pIC50: −log10 of the molar value.

COMPOUND | pIC50
Cc1cc(Nc2ncc3c(n2)N(C)C(=O)N(c2cc(NC(=O)c4cccc(C(F)(F)F)c4)ccc2C)C3)n(C)n1 [SC-1] | 5.85

###

Target: UniProt:P51812
Assay: In vitro kinase inhibition assay (modified Nguyen et al.)
Settings: RSK2 N-terminal domain; mean±SD, n = 5; concentration inhibiting 50% of control activity

TEST_SMILES | EC50 (µM)
Cc1cc(Nc2ncc3c(n2)N(C)C(=O)N(c2cc(NC(=O)c4cccc(C(F)(F)F)c4)ccc2C)C3)n(C)n1 | 2.5

###

Target: RSK2 (Homo sapiens)
Sequence (P51812 whole entry, species assumed): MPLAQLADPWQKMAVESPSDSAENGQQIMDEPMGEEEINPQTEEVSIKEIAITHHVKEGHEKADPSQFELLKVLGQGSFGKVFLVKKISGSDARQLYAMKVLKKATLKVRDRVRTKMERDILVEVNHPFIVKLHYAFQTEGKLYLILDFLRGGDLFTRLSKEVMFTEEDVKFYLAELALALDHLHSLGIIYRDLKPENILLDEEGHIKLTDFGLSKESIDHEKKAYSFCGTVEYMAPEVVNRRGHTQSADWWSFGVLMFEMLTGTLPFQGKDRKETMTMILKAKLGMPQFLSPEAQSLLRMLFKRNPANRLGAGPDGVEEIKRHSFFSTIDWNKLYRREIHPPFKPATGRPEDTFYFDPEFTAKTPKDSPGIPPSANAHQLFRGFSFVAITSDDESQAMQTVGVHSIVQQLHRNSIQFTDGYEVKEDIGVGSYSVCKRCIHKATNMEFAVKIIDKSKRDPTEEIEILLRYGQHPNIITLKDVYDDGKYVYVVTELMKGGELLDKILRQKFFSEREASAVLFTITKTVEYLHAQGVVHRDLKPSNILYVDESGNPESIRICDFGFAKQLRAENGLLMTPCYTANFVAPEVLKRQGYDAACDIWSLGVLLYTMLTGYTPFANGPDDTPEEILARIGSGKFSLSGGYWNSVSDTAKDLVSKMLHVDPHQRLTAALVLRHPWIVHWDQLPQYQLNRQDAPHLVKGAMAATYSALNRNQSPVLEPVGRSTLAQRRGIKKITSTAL
Experiment: Miniaturized 33P-based kinase screening assay
Type: biochemical
Details: max 10 µM, 3-fold serial dilution, n = 2
pIC50: −log10 of the molar value.

TEST_SMILES | SYSTEM_NAME | pIC50
Cc1cc(Nc2ncc3c(n2)N(C)C(=O)N(c2cc(NC(=O)c4cccc(C(F)(F)F)c4)ccc2C)C3)n(C)n1 | RSK2 (Homo sapiens) | 5.60
